Here, compounds appear alongside Ki reported for UniProt P00915 in the literature.

Worked set:
{"columns": ["SMILES_STR", "ASSAYED_TARGET", "Ki"],
 "data": [
  ["CC1(C)O[C@@H]2O[C@@H](C(=O)NS(N)(=O)=O)[C@H]3OC(C)(C)O[C@H]3[C@@H]2O1", "UniProt P00915", "> 100 µM"],
  ["O=C1c2ccccc2S(=O)(=O)N1Cc1ccc(Cl)c(Cl)c1", "UniProt P00915", "> 50 µM"],
  ["COC(=O)[C@H](C)NS(=O)(=O)NC(=O)OC(C)(C)C", "UniProt P00915", "> 200 µM"],
  ["CCOc1ccc(S(=O)(=O)NC(C)(C)CO)cc1-c1nnc2c(n1)c(C)nn2C", "UniProt P00915", "> 10 µM"]
]}

Next up:
// returns Ki for N#Cc1cn(-c2nc3ccc(S(N)(=O)=O)cc3s2)nc1-c1ccc(Cl)cc1 with UniProt P00915; value = > 50 µM

---

Here, compounds appear alongside Ki reported for UniProtKB P00915 in the literature.

Worked set:
{"columns": ["COMPOUND", "Ki"],
 "data": [
  ["CNc1ccc2oc(=O)c3c(C)nn(-c4ccccc4)c3c2c1", "> 10 µM"],
  ["NS(=O)(=O)c1ccc(/N=C/c2cc(Cl)ccc2O)cc1", "> 50 µM"],
  ["COC(=O)CCNS(=O)(=O)NC12CC3CC(CC(C3)C1)C2", "> 10 µM"],
  ["CCOc1c(C(C)=O)c(=O)oc2ccc(Br)cc12", "> 10 µM"],
  ["COc1ccc(S(=O)(=O)N(CC(=O)NO)Cc2ccccc2)cc1", "> 0.2 µM"],
  ["CC(=O)c1cc2cc([N+](=O)[O-])ccc2oc1=O", "> 10 µM"],
  ["CC(C)(C)c1ccc(-c2ccc3c(c2)C=CS(=O)(=O)O3)cc1", "> 10 µM"],
  ["O=C1c2ccccc2C(=O)N1CN1C(=O)c2ccccc2S1(=O)=O", "> 50 µM"]
]}

Next up:
// returns Ki for CCCN(CCC)S(=O)(=O)c1ccc(C(=O)NC2CCC(C)CC2)cc1 (centres undefined) with UniProtKB P00915; value = > 10 µM

---

Here, compounds appear alongside log10(Ki) reported for UniProt:P00915 in the literature.
Transform log10 | Measure Ki | Unit nM

Worked set:
{"columns": ["COMPOUND", "PROPERTY_LABEL", "REPORTED_VALUE"],
 "data": [
  ["CCCC(CCC)C(=O)Oc1ccc2nc(S(N)(=O)=O)sc2c1", "log10(Ki)", 1.70],
  ["NS(=O)(=O)c1nnc(NC(=O)c2c(F)c(F)cc(F)c2F)s1", "log10(Ki)", 2.40],
  ["NS(=O)(=O)c1ccc(CNC(=O)CN2C(=O)NC3(CCCC3)C2=O)cc1", "log10(Ki)", 3.44],
  ["CNCC(=O)Nc1nnc(S(N)(=O)=O)s1", "log10(Ki)", 2.48],
  ["O=S(=O)(NO)c1ccc(Br)cc1", "log10(Ki)", 4.58],
  ["NS(=O)(=O)c1nnc(NC(=O)c2ccccc2)s1", "log10(Ki)", 1.58],
  ["NS(=O)(=O)c1ccc(CCOC(=O)CN(CCN(CC(=O)O)c2ccccc2O)c2ccccc2O)cc1", "log10(Ki)", 2.88],
  ["NS(=O)(=O)c1ccc(N2N=C(c3ccc(Cl)c(Cl)c3)CCC2=O)cc1", "log10(Ki)", 3.78],
  ["CC1=NN(c2ccc(S(N)(=O)=O)cc2)C(=O)CC1", "log10(Ki)", 1.95],
  ["C#CCOc1ccc2ccc(=O)oc2c1", "log10(Ki)", 4.86]
]}

// returns log10(Ki) for C[C@@H](O)[C@H](NC(=O)c1ccc(S(N)(=O)=O)cc1)C(=O)O with UniProt:P00915; value = 2.68

// returns log10(Ki) for NCCCC(=O)Nc1nccc(Nc2ccc(S(N)(=O)=O)cc2)n1 with UniProt:P00915; value = 1.71

// returns log10(Ki) for NS(=O)(=O)c1cc(C(=O)Nc2ccc([Se][C@@H]3O[C@H](CO)[C@H](O)[C@H](O)[C@H]3O)cc2)ccc1Cl with UniProt:P00915; value = 2.80

// returns log10(Ki) for NS(=O)(=O)c1ccc(CNC(=O)CN2C(=O)NC3(CCCCCC3)C2=O)cc1 with UniProt:P00915; value = 2.81

// returns log10(Ki) for C[C@H](NC(=O)c1ccc(Cl)c(S(N)(=O)=O)c1)C(=O)N[C@@H](Cc1ccccc1)C(=O)O with UniProt:P00915; value = 1.56

// returns log10(Ki) for NS(=O)(=O)c1ccc(N2C(=O)/C(=C/c3coc4ccccc4c3=O)N=C2c2ccccc2)cc1 with UniProt:P00915; value = 3.90

// returns log10(Ki) for NS(=O)(=O)c1ccc(NC(=S)NC(CC(=O)O)C(=O)O)cc1 (stereo not drawn) with UniProt:P00915; value = 1.54

// returns log10(Ki) for CSCC[C@H](/N=C(\S)Nc1ccc(S(N)(=O)=O)cc1)C(=O)O with UniProt:P00915; value = 1.43

// returns log10(Ki) for NS(=O)(=O)Oc1c(Cl)cc(Cl)cc1Cl with UniProt:P00915; value = 2.66

// returns log10(Ki) for NS(=O)(=O)c1ccc(COC(=O)CNCCNCC(=O)O)cc1 with UniProt:P00915; value = 3.01

// returns log10(Ki) for C[C@H](CCC(=O)OCCc1ccc(S(N)(=O)=O)cc1)[C@H]1CC[C@H]2[C@@H]3CC[C@@H]4C[C@H](O)CC[C@]4(C)[C@H]3C[C@H](O)[C@]12C with UniProt:P00915; value = 2.95
